Would you mind telling me the reported Ki of each entry?
Unit nM implied. Number only.

Query: Give Ki (PSMA (Homo sapiens, UniProt Q04609)) of the following molecule: O=C(O)CC[C@H](NC(=O)N[C@@H](CCCCNC(=O)CCCCCCC(=O)NCCCC[C@@H](NC(=O)C(CNC(=O)CSC(c1ccccc1)(c1ccccc1)c1ccccc1)NC(=O)CSC(c1ccccc1)(c1ccccc1)c1ccccc1)C(=O)O)C(=O)O)C(=O)O (stereo partly shown)
Reply: 0.048

Query: Give Ki (PSMA (Homo sapiens, UniProt Q04609)) of the following molecule: NNc1ccc(C(=O)NCCCCC(NC(=O)CCCCCCC(=O)NCCCCC(NC(=O)NC(CCC(=O)O)C(=O)O)C(=O)O)C(=O)O)cn1 (stereo not shown)
Reply: 1.74

Query: Give Ki (PSMA (Homo sapiens, UniProt Q04609)) of the following molecule: O=C(O)CCC(NC(=O)NC(CCCCNC(=O)CCCCCCC(=O)NC(CCCCN(CC(=O)O)Cc1ccccn1)C(=O)O)C(=O)O)C(=O)O (stereo not shown)
Reply: 12.6

Query: Give Ki (PSMA (Homo sapiens, UniProt Q04609)) of the following molecule: O=C(O)CCC(NC(=O)NC(CCCCNC(=O)CCCCCCC(=O)NCCCCC(NC(=O)CNC(=O)CNC(=O)CSC(c1ccccc1)(c1ccccc1)c1ccccc1)C(=O)O)C(=O)O)C(=O)O (stereo not shown)
Reply: 0.03

---

Consider the following Ki values measured on UniProt:Q04609.
Residues, ends and D or L forms follow the SMILES beside them. *: point of attachment. X1 = O=C(O)CCC(NC(=O)NC(CCCCNC(=O)CCCCCCC(=O)*)C(=O)O)C(=O)O; Acetyl(2-STrt) = O=C(CSC(c1ccccc1)(c1ccccc1)c1ccccc1)*

Query: # lookup: Ki of O=C(O)CCC(NC(=O)NC(CCCCNC(=O)CCCCCCC(=O)NCCCCC(NC(=O)C(Cc1ccccc1)NC(=O)C(Cc1ccccc1)NC(=O)CNC(=O)CNC(=O)CSC(c1ccccc1)(c1ccccc1)c1ccccc1)C(=O)O)C(=O)O)C(=O)O (stereo not shown) [Compound L13] ({Acetyl(2-STrt)}-GGFFK(X1)-OH; configuration not given here)
Reply: 1.91 nM

Query: # lookup: Ki of NC(Cc1cn(CCCC[C@H](NC(=O)CCCCCCC(=O)NCCCC[C@H](NC(=O)N[C@@H](CCC(=O)O)C(=O)O)C(=O)O)C(=O)O)nn1)C(=O)O (stereo partly shown)
Reply: 1.12 nM

Query: # lookup: Ki of O=C(O)CCC(NC(=O)NC(CCCCNC(=O)CCCCCCC(=O)NC(CCCCN(Cc1ncc[nH]1)Cc1ncc[nH]1)C(=O)O)C(=O)O)C(=O)O (stereo not shown)
Reply: 16.3 nM

Query: # lookup: Ki of O=C(O)CCC(NC(=O)NC(CCCCNC(=O)CCCCCCC(=O)NCCCCC(NC(=O)C(Cc1ccccc1)NC(=O)CNC(=O)CNC(=O)CSC(c1ccccc1)(c1ccccc1)c1ccccc1)C(=O)O)C(=O)O)C(=O)O (stereo not shown) [Compound L12] ({Acetyl(2-STrt)}-GGFK(X1)-OH; configuration not given here)
Reply: 0.13 nM
